Entries and their log10 of TGI
Tested on: SK-MEL-5 melanoma
Assay: NCI tumour cell line growth inhibition, 48 h
Scale: decimal log of TGI, TGI in µM.

Observe how each entry below is paired with its result.
{"Compound": "CC(C)SC(=S)Sc1c(Cl)c(Cl)nc(Cl)c1Cl", "System under test": "SK-MEL-5 melanoma", "log10 of TGI": 1.46}
{"Compound": "O=C1OC(C2Cc3ccc4ccccc4c3C2=O)c2ccccc21 (configuration not stated)", "System under test": "SK-MEL-5 melanoma", "log10 of TGI": 1.99}
{"Compound": "COc1ccc(-c2nc(SCC(=O)NNC(=S)Nc3ccccc3)[nH]c2-c2ccc(OC)cc2)cc1", "System under test": "SK-MEL-5 melanoma", "log10 of TGI": 1.45}
{"Compound": "Cc1cccc(C)c1NC(=O)C(Cc1c[nH]c2ccccc12)NC(=O)OCc1ccccc1 (configuration not stated)", "System under test": "SK-MEL-5 melanoma", "log10 of TGI": 1.46}
{"Compound": "CC(=O)NC1C(OCc2ccccc2)OC(CO)C(O)C1OCC(=O)N[C@@H](C)C(=O)N[C@H](CCC(=O)NCCCNc1c2ccccc2nc2cccc([N+](=O)[O-])c12)C(N)=O (some centres not stated)", "System under test": "SK-MEL-5 melanoma", "log10 of TGI": -1.42}

Task item: Data request, read-out log10 of TGI, for O=C(Nc1ccc(Br)cc1F)c1cc(Cl)ccc1O
Reply: -0.09

Task item: Data request, read-out log10 of TGI, for N=c1c2c(-c3ccccc3)c(-c3ccccc3)n(Cc3ccccc3)c2ncn1C1CCC(O)CC1 (configuration not stated)
Reply: 0.27

Task item: Data request, read-out log10 of TGI, for O=C1N=C2Sc3ccc4ccccc4c3N2C1=O
Reply: 1.76

Task item: Data request, read-out log10 of TGI, for CC(C)(/C=C(\C#N)C(=O)N1CCC[C@@H](n2nc(-c3ccc(Oc4ccccc4)cc3F)c3c(N)ncnc32)C1)N1CCN(C2COC2)CC1
Reply: 1.14

Task item: Data request, read-out log10 of TGI, for O=C(/C=C/c1ccccc1)Oc1ccc(C(=O)/C=C/c2ccccc2)cc1
Reply: 1.57

Task item: Data request, read-out log10 of TGI, for Cc1ccc(C)c(NC(=O)c2cccc([N+](=O)[O-])c2O)c1
Reply: 1.40

Task item: Data request, read-out log10 of TGI, for Oc1cc(Cl)cc2cccnc12
Reply: 1.13

Task item: Data request, read-out log10 of TGI, for Cc1nc(N)sc1N=Nc1ccccc1Br
Reply: 1.69

Task item: Data request, read-out log10 of TGI, for Cc1cc(N[C@@H]2CCC[C@H](Nc3ccnc4cc(Cl)ccc34)C2)nc(N2CCCCCC2)n1
Reply: 0.51

Task item: Data request, read-out log10 of TGI, for Cc1nnc(Nc2ccc(NC(=O)Nc3ccc(Cl)cc3)cc2)c2ccccc12
Reply: 0.54

Task item: Data request, read-out log10 of TGI, for CC1=CCC([C@@](C)(O)CCCC(C)(C)N=C=S)CC1 (some centres not stated)
Reply: 1.47

Task item: Data request, read-out log10 of TGI, for CCOc1cc(/C=C2/C(C)=NN(c3cccc(Cl)c3)/C2=N/c2nc3ccccc3s2)ccc1O
Reply: 1.60

Task item: Data request, read-out log10 of TGI, for Cn1c(SCc2ccc(F)cc2)nnc1C12CC3CC(CC(C3)C1)C2
Reply: 1.42

Task item: Data request, read-out log10 of TGI, for C[n+]1c(/C=C/c2c(O)ccc3ccccc23)ccc2ccccc21
Reply: 1.03
